B1: SMAD6 (parent)
chain: SGLVRRLWRSRVVPDREEGGSGGG

- Variants of: B1
- Assay explanation: protein stability index of a GFP-peptide fusion (GPS, HEK-293T) (PSI 1-6); higher = more stable;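 note: lentivirally expressed fusions sorted by FACS into six bins by GFP to DsRed ratio, PSI derived from sequencing read proportions per bin multiplied by bin number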
- Stated conditions: c terminus: a fixed tail appended
Measured property: protein stability index
One number for each entry.

Example entries begin here.
- Biosequence: "SNLVRRLWRSRVVPDREEGGSGGG [G2N]"
  protein stability index: 4.17
- Biosequence: "SGLVRRLWGSRVVPDREEGGSGGG [R9G]"
  protein stability index: 3.27
- Biosequence: "SPLVRRLWRSRVVPDREEGGSGGG [G2P]"
  protein stability index: 4.79
- Biosequence: "SGLVRRLWRSRPVPDREEGGSGGG [V12P]"
  protein stability index: 3.67
- Biosequence: "SGLVRRLWRSRVVPIREEGGSGGG [D15I]"
  protein stability index: 2.75
- Biosequence: "SGLVRHLWRSRVVPDREEGGSGGG [R6H]"
  protein stability index: 4
- Biosequence: "SGLVRRLWRSRVVPDREVGGSGGG [E18V]"
  protein stability index: 3.85
- Biosequence: "SGLVRRLWRSRVVPDREEGGSGPG [G23P]"
  protein stability index: 3.89
- Biosequence: "QGLVRRLWRSRVVPDREEGGSGGG [S1Q]"
  protein stability index: 5.24
- Biosequence: "SGTVRRLWRSRVVPDREEGGSGGG [L3T]"
  protein stability index: 3.54

I would be grateful if you could provide protein stability index for each of the following entries.
1. SGLVRSLWRSRVVPDREEGGSGGG [R6S]
2. SGLVRRLWRSRVVPDRKEGGSGGG [E17K]
3. SGLVRRLWRSRVVLDREEGGSGGG [P14L]
4. SGLVRRLWRSRVVPDREEGGSGMG [G23M]
5. SGLVRRLLRSRVVPDREEGGSGGG [W8L]
6. SGLVRRLWRSKVVPDREEGGSGGG [R11K]

1: 3.29; 2: 4.14; 3: 3.18; 4: 3.25; 5: 4.22; 6: 4.15

The reported measurements were obtained from the supplement of paper PMC10567573.
